Test system: human embryonic fibroblasts (HEFs)
Experiment: Cell death by trypan blue staining in HEFs
Type: cell-based
Conditions: Homo sapiens, Fibroblast, 6 h; treated for six hours; read-out: EC50 for induction of apoptosis (PCD) in HEFs
measurement-label: EC50

q: Would you mind telling me what EC50 value was observed for O=C1CCC(N2C(=O)c3ccccc3C2=O)C(=O)N1 (racemic) [thalidomide] ?
a: 8.9 µM
